- TARGET: PRMT5/MEP50-MTA protein complex (Homo sapiens, UniProt O14744)
- Construct: purchased Viva Biotech
- Sequence (O14744 whole entry): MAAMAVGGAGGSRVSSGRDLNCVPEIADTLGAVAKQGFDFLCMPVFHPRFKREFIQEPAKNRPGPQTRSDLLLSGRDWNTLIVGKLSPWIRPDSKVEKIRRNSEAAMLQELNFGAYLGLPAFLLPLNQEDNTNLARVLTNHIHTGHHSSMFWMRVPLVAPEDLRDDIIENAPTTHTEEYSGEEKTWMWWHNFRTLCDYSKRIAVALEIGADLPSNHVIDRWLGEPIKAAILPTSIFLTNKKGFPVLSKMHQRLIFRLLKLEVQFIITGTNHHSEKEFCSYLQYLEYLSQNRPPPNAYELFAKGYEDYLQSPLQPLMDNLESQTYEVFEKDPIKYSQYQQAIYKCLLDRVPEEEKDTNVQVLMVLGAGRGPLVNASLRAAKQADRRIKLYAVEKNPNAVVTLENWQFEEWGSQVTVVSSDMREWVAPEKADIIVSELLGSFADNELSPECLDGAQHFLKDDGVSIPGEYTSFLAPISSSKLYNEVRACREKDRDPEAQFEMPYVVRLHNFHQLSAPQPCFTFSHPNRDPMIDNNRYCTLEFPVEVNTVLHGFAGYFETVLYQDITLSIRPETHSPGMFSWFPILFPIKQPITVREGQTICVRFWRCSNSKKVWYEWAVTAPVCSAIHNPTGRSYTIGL
- Sequence (Q9BQA1 whole entry partner): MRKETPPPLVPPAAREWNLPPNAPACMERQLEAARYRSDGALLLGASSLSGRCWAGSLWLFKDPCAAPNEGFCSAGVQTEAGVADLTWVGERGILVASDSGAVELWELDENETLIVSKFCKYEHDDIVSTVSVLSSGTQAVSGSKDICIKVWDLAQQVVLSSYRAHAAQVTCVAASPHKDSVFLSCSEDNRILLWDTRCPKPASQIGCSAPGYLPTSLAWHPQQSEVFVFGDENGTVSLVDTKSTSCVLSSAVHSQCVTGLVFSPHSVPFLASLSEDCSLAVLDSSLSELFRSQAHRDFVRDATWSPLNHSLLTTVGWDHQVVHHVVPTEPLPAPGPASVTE
- METHOD: Thermal shift assay: change in melting temperature of the PRMT5/MEP50-MTA protein complex
- Assay type: binding
- CONDITION SUMMARY: compound 8 µM, PRMT5/MEP50 2 µM, MTA 2 µM; Tm minus DMSO vehicle control
List of ΔTm at 8 µM values.
Numbers only; they are read as °C.

Check out these entries, answers already filled in.
MOLECULE	TARGET	ΔTm at 8 µM / °C
CN(C(=O)c1ccc2nc(N)c3cnn(C)c3c2c1)C1COCc2c1ccc1cc(C(F)(F)F)cnc21 (stereo not shown)	PRMT5/MEP50-MTA protein complex (Homo sapiens, UniProt O14744)	10.4
Cc1cc2nc(N)c3cncn3c2cc1C(=O)N(C1COCc2nc(C(F)(F)F)ccc21)N(C)C (stereo not shown)	PRMT5/MEP50-MTA protein complex (Homo sapiens, UniProt O14744)	10.4
CNN(C(=O)c1cc2c3c(c(N)nc2cn1)COC3)C1COc2cc(S(F)(F)(F)(F)F)ccc21 (single isomer, unassigned) [Example 372-P1]	PRMT5/MEP50-MTA protein complex (Homo sapiens, UniProt O14744)	11.6

Turning now to a further record.
Noted for Cc1cc2nc(N)c3cncn3c2cc1C(=O)N(C)C1COCc2c1ccn1c(N=S(C)(C)=O)cnc21 (stereo not shown) : its ΔTm at 8 µM reads 10.2

----------
- METHOD: Pharmacokinetics in rats (plasma) after oral administration
- CONDITION SUMMARY: male, SD, rat, 5 mg/kg
MEASURED PARAMETER: half-life

Some solved entries appear below for comparison.
MOLECULE	ASSAY RESULT
[2H]C([2H])([2H])NN(C(=O)c1cc2c(cn1)nc(N)c1cnn(C)c12)C1COCc2c1ccn1c(C(F)(F)F)cnc21 (stereo not shown)	4.4 h
CNN(C(=O)c1cc2c(cc1F)nc(N)c1cncn12)C1COCc2nc(C(F)(F)F)ccc21 (stereo not shown)	1 h
Cc1cc2nc(N)c3cncn3c2cc1C(=O)N(C)[C@@H]1COCc2c1ccn1c(C(F)(F)F)cnc21 [Example 62-P1]	4.1 h
[2H]C([2H])([2H])NN(C(=O)c1cc2c3c(c(N)nc2cc1C)COC3)C1COCc2c1ccn1c(C(F)(F)F)cnc21 (stereo not shown)	1.2 h
Nc1nc2cnc(C(=O)N(N)C3COCc4c3ccn3c(C(F)(F)F)cnc43)cc2c2c1COC2 (stereo not shown)	6.1 h
[2H]C([2H])([2H])NN(C(=O)c1cc2c3c(c(N)nc2cc1F)COC3)C1COCc2c1ccn1c(C(F)(F)F)cnc21 (stereo not shown)	2.3 h

Consider now this further molecule.
Data point: CNN(C(=O)c1cc2c3c(c(N)nc2cn1)COC3)[C@@H]1COCc2nc(C(F)(F)F)ccc21 [Example 286-P1] ; half-life = 2.1 h

----------
- TARGET: PRMT5/MEP50-MTA protein complex (Homo sapiens)
- Construct: purchased Viva Biotech
- METHOD: Thermal shift assay: change in melting temperature of the PRMT5/MEP50-MTA protein complex
- Type: binding
- CONDITION SUMMARY: compound 8 µM, PRMT5/MEP50 2 µM, MTA 2 µM; Tm minus DMSO vehicle control
# ΔTm at 8 µM annotations
Provide the reading as a plain figure in °C.

MOLECULE	TARGET	ΔTm at 8 µM [°C]
CNN(C(=O)c1cc2c(cn1)nc(N)c1cnn(C)c12)C1COc2cc(S(F)(F)(F)(F)F)ccc21 (stereo not shown)	PRMT5/MEP50-MTA protein complex (Homo sapiens)	12.7
Nc1nc2cc(F)c(C(=O)N(N)C3COCc4nc(C(F)(F)F)ccc43)cc2n2cncc12 (stereo not shown)	PRMT5/MEP50-MTA protein complex (Homo sapiens)	10.9
[2H]C([2H])([2H])NN(C(=O)c1cc2c(cn1)nc(N)c1cnn(C)c12)C1COCc2c1ccn1c(C(F)(F)F)cnc21 (stereo not shown)	PRMT5/MEP50-MTA protein complex (Homo sapiens)	12.7
[2H]C([2H])([2H])NN(C(=O)c1cc2c3c(c(N)nc2cc1Cl)COC3)C1COCc2c1ccn1c(C(F)(F)F)cnc21 (stereo not shown)	PRMT5/MEP50-MTA protein complex (Homo sapiens)	13.2
[2H]C([2H])([2H])NN(C(=O)c1ccc2nc(N)c3cnn(C)c3c2c1)C1([2H])COCc2nc(C(F)(F)F)ccc21 (stereo not shown)	PRMT5/MEP50-MTA protein complex (Homo sapiens)	11.1

molecule CNN(C(=O)c1cc2c(cc1C)nc(N)c1cncn12)C1COCc2nc(C(F)(F)F)ccc21 (stereo not shown) , ΔTm at 8 µM observed: 12.7

[2H]C([2H])([2H])NN(C(=O)c1ccc2nc(N)c3cnn(C)c3c2c1)[C@@H]1COCc2c1ccn1c(C(F)(F)F)cnc21 [Example 436-P1] has a reported ΔTm at 8 µM of 11.9

----------
- METHOD: in vivo
- CONDITION SUMMARY: rat, po, 5 mg/kg
MEASURED PARAMETER: Tmax (h)
Provide only the numeric value, understood in h.

Note to self: Tmax recorded for CNN(C(=O)c1cc2c3c(c(N)nc2cn1)COC3)C1COc2cc(S(F)(F)(F)(F)F)ccc21 (single isomer, unassigned) [Example 372-P1] was 2.7

----------
- METHOD: Pharmacokinetics in rats (plasma) after oral administration
- CONDITION SUMMARY: rat, 5 mg/kg
MEASURED PARAMETER: Tmax (min)
Write the answer as a number in min, unit excluded.

MOLECULE	UNIT SYMBOL	ASSAY RESULT
[2H]C([2H])([2H])NN(C(=O)c1cc2c3c(c(N)nc2cn1)[C@@H](C)OC3)[C@@H]1COCc2c1ccn1c(C(F)(F)F)cnc21 [Example 362-P1]	min	42

Kindly review the next molecule as well.
Notebook: `CNN(C(=O)c1cc2c3c(c(N)nc2cn1)COC3)[C@@H]1COCc2nc(S(F)(F)(F)(F)F)ccc21` , Tmax read as 30

----------
Each entry below lists one item and its recorded ΔTm at 8 µM value.
- TARGET: PRMT5/MEP50-MTA protein complex (Homo sapiens)
- Construct: purchased Viva Biotech
- METHOD: Thermal shift assay: change in melting temperature of the PRMT5/MEP50-MTA protein complex
- Assay type: binding
- CONDITION SUMMARY: compound 8 µM, PRMT5/MEP50 2 µM, MTA 2 µM; Tm minus DMSO vehicle control
API: value field is a number in °C; no unit string.

Below: 6 compounds and their reported ΔTm at 8 µM.
COMPOUND	MEASURED PARAMETER	ASSAY RESULT
Cc1cc2nc(N)c3cncn3c2cc1C(=O)N(C)[C@@H]1COCc2c1ccn1cc(C(F)(F)F)nc21 [Example 39-P1]	ΔTm at 8 µM	12.4
CNN(C(=O)c1cc2c3c(c(N)nc2cn1)COC3)C1COCc2cc(C(F)(F)F)ccc21 (stereo not shown) [Example 298]	ΔTm at 8 µM	11.4
[2H]C([2H])([2H])NN(C(=O)c1ccc2nc(N)c3cnn(C)c3c2c1)C1COCc2c1ccn1c(C(F)(F)F)cnc21 (stereo not shown) [Example 436]	ΔTm at 8 µM	11.5
CNN(C(=O)c1cc2c(cc1C)nc(N)c1cncn12)C1COCc2c1ccn1c(C(F)(F)F)cnc21 (stereo not shown) [Example 281]	ΔTm at 8 µM	12.7
[2H]C([2H])([2H])NN(C(=O)c1cc2c3c(c(N)nc2cn1)COC3)[C@H]1COCc2c1ccn1c(C(F)(F)F)cnc21 (stereo in doubt) [Example 371-P1]	ΔTm at 8 µM	11.6
[2H]C([2H])([2H])NN(C(=O)c1cc2c3c(c(N)nc2cc1C)COC3)C1COCc2c1ccn1c(C(F)(F)F)cnc21 (stereo not shown) [Example 357]	ΔTm at 8 µM	12.2

PRMT5/MEP50-MTA protein complex (Homo sapiens) data for CCNN(C(=O)c1cc2c(cc1C)nc(N)c1cncn12)C1COCc2nc(C(F)(F)F)ccc21 (stereo not shown) [Example 277] ; its ΔTm at 8 µM: 12.9

----------
- METHOD: Pharmacokinetics in rats (plasma) after oral administration
- CONDITION SUMMARY: male, SD, rat, 5 mg/kg
MEASURED PARAMETER: Tmax (min)
Kindly provide the numeric value in min only, without the unit symbol.

Observe how each entry below is paired with its result.
COMPOUND	UNIT SYMBOL	Tmax
CNN(C(=O)c1cc2c(cc1F)nc(N)c1cncn12)C1COCc2nc(C(F)(F)F)ccc21 (stereo not shown)	min	30
[2H]C([2H])([2H])NN(C(=O)c1cc2c3c(c(N)nc2cc1C)COC3)C1COCc2c1ccn1c(C(F)(F)F)cnc21 (stereo not shown)	min	42
CNN(C(=O)c1cc2c3c(c(N)nc2cn1)COC3)[C@@H]1COCc2nc(C(F)(F)F)ccc21 [Example 286-P1]	min	30
[2H]C([2H])([2H])NN(C(=O)c1ccc2nc(N)c3cnn(C)c3c2c1)[C@@H]1COCc2nc(C(F)(F)F)ccc21	min	60
Cc1cc2nc(N)c3cncn3c2cc1C(=O)N(C)[C@@H]1COCc2c1ccn1c(C(F)(F)F)cnc21 [Example 62-P1]	min	30

Documented Tmax of [2H]C([2H])([2H])NN(C(=O)c1cc2c(cn1)nc(N)c1cnn(C)c12)C1COCc2c1ccn1c(C(F)(F)F)cnc21 (stereo not shown) : 90

Sure, the documented Tmax for Nc1nc2cnc(C(=O)N(N)C3COCc4c3ccn3c(C(F)(F)F)cnc43)cc2c2c1COC2 (stereo not shown) is 162
